Molecular target: T1, Human Scribble (SCRIB) PDZ3 domain (1002-1094) (human, UniProt Q14160 1002-1094)
T1 sequence: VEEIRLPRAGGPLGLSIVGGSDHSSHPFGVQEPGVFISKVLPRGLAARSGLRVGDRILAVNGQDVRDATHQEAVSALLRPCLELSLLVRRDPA
Assay: ITC
Result type: pKd
Schema: pKd number; meaning minus log10 of the concentration expressed in molar units.

What value of measured pKd is listed for RSWFETWV [Superpeptide (RSWFETWV)] ? 5.80
